- Tested on: A549
- ASSAY_INFO: Antiproliferative activity against human A549 cells after 48 hrs by MTT assay
- Format: functional, cell-based
- CONDITIONS_USED: A549, 48 h
Classes by IC50: L (below 4 µM), M (4 µM to below 10 µM), H (10 µM or more)

Cc1ccc(-n2nc(COC(=O)COc3cc(O)c4c(=O)cc(-c5ccccc5)oc4c3)cc2-c2cccc(Cl)c2)cc1: M

**Query** For this compound, which bin applies? `COc1cccc(-c2cc(COC(=O)COc3cc(O)c4c(=O)cc(-c5ccccc5)oc4c3)nn2-c2ccccc2)c1`
**Result** H

**Query** Which category fits this record: `Cc1ccc(-c2cc(COC(=O)COc3cc(O)c4c(=O)cc(-c5ccccc5)oc4c3)nn2-c2ccccc2)cc1`
**Result** M

**Query** Category of `Cc1cccc(-c2cc(COC(=O)COc3cc(O)c4c(=O)cc(-c5ccccc5)oc4c3)nn2-c2ccccc2)c1` , please.
**Result** H

**Query** Looking at `O=C(COc1cc(O)c2c(=O)cc(-c3ccccc3)oc2c1)OCc1cc(-c2cccc(Cl)c2)n(-c2ccc(Cl)cc2)n1` , which class would you pick?
**Result** M

**Query** Just checking, what class would you give `O=C(COc1cc(O)c2c(=O)cc(-c3ccccc3)oc2c1)OCc1cc(-c2ccccc2)n(-c2ccccc2)n1` here?
**Result** L

**Query** In plain terms, what class is `Cc1ccc(-n2nc(COC(=O)COc3cc(O)c4c(=O)cc(-c5ccccc5)oc4c3)cc2-c2ccc(F)cc2)cc1` ?
**Result** M

**Query** Hello team, could you let me know which band the following compound falls into: `Cc1ccc(-n2nc(COC(=O)COc3cc(O)c4c(=O)cc(-c5ccccc5)oc4c3)cc2-c2cccc(C)c2)cc1`
**Result** H

**Query** Band assignment needed for Cc1ccc(-c2cc(C(F)(F)F)nn2-c2ccc(S(N)(=O)=O)cc2)cc1 [CELECOXIB] please.
**Result** H

**Query** In plain terms, what class is `O=C(COc1cc(O)c2c(=O)cc(-c3ccccc3)oc2c1)OCc1cc(-c2ccc(Cl)c(Cl)c2)n(-c2ccc(Cl)cc2)n1` ?
**Result** L

**Query** Bin this entry: `O=C(COc1cc(O)c2c(=O)cc(-c3ccccc3)oc2c1)OCc1cc(-c2ccc([N+](=O)[O-])cc2)n(-c2ccccc2)n1`
**Result** H

**Query** Kindly identify the class of `O=C(COc1cc(O)c2c(=O)cc(-c3ccccc3)oc2c1)OCc1cc(-c2ccc(Br)cc2)n(-c2ccccc2)n1` .
**Result** L

**Query** Which bin should I file `Cc1ccc(-n2nc(COC(=O)COc3cc(O)c4c(=O)cc(-c5ccccc5)oc4c3)cc2-c2ccc(C(F)(F)F)cc2)cc1` under?
**Result** M

**Query** // bin(item) where item = O=c1cc(-c2ccccc2)oc2cc(O)cc(O)c12 [CHRYSIN]
**Result** H

====

Below, each entry is listed with its recorded IC50.
- Test system: A549
- ASSAY_INFO: Antiproliferative activity against human A549 cells after 48 hrs by MTT assay
- Assay type: functional, cell-based
- CONDITIONS_USED: A549, 48 h

// worked examples, IC50 included
O=C(COc1cc(O)c2c(=O)cc(-c3ccccc3)oc2c1)OCc1cc(-c2ccc(Cl)cc2)n(-c2ccccc2)n1: > 100 µM
Cc1ccc(-n2nc(COC(=O)COc3cc(O)c4c(=O)cc(-c5ccccc5)oc4c3)cc2-c2ccc(Cl)c(Cl)c2)cc1: > 100 µM

Next item in the queue.
**Query** Give me measured IC50, please, for this molecule: `O=C(COc1cc(O)c2c(=O)cc(-c3ccccc3)oc2c1)OCc1cc(-c2cccc([N+](=O)[O-])c2)n(-c2ccccc2)n1`
**Result** > 100 µM
